Target: purified HLA DRB1*1101 (Homo sapiens, UniProt P01903+P01911, A100R/A169T/A87E/I96F/K41T/L162R/M171V/P40S/Q125H/Q178H/Q39Y/Q99D/R42S/S66Y/T262R/V115G/W38E)
Construct: purified from EBV transformed homozygous cell lines or single MHC allele transfected 721.221, C1R, or fibroblast lines; made in house
Sequence (P01903 26-254, other chains not shown): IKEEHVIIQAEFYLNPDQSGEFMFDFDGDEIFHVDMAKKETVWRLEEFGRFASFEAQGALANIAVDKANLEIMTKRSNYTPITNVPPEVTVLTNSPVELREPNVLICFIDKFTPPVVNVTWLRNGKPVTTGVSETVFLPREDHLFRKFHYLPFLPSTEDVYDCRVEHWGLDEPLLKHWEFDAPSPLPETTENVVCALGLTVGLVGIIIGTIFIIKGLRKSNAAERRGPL
Experiment: HLA-DR radioligand binding inhibition assay, DRB1*1101
Conditions: IC50 nM purified HLA DRB1 *1101, purified HLA DRB1*1101
Procedure: Instead, wells of an opaque white 96-well Optiplate (Packard) are coated with 3 μg (100 μl@ 30 μg/ml) of HLA-specific antibody (Ab) that “capture” complexes of radiolabeled MHC and unlabeled peptide transferred from the molecular binding assay plate in 100 μl of 0.05% NP40/PBS. […] Captured complexes are then measured on a microplate scintillation and luminescence counter (TopCount NXTTM; Packard). […]

MOLECULE	VALUE UNIT	IC50
CC[C@H](C)[C@H](NC(=O)[C@@H](NC(=O)[C@H](CCC(=O)O)NC(=O)[C@H](CCCCN)NC(=O)[C@H](CCSC)NC(=O)[C@H](CCCCN)NC(=O)[C@H](CO)NC(=O)[C@H](C)NC(=O)[C@@H](NC(=O)[C@H](Cc1ccccc1)NC(=O)[C@H](CCSC)NC(=O)[C@H](CS)NC(=O)[C@@H](N)[C@@H](C)O)C(C)C)[C@@H](C)O)C(=O)N1CCC[C@H]1C(=O)N[C@@H](CC(C)C)C(=O)O [Peptide 9019.0157]	nM	61
CC(C)C[C@H](NC(=O)[C@H](CCC(=O)O)NC(=O)[C@H](CCCNC(=N)N)NC(=O)[C@H](CC(C)C)NC(=O)CNC(=O)CNC(=O)[C@@H]1CCCN1C(=O)[C@H](CO)NC(=O)[C@H](C)NC(=O)CNC(=O)[C@@H](NC(=O)[C@@H](NC(=O)[C@@H]1CCCN1C(=O)[C@@H](NC(=O)[C@@H](N)[C@@H](C)O)[C@@H](C)O)C(C)C)[C@@H](C)O)C(=O)O [Peptide 9019.0037]	nM	11200
CSCC[C@H](NC(=O)[C@@H](NC(=O)[C@H](Cc1ccc(O)cc1)NC(=O)[C@H](C)N)C(C)C)C(=O)N[C@@H](C)C(=O)NCC(=O)N[C@H](C(=O)NCC(=O)N[C@@H](CO)C(=O)N1CCC[C@H]1C(=O)N[C@@H](Cc1ccc(O)cc1)C(=O)N[C@H](C(=O)N[C@@H](CO)C(=O)N[C@@H](CCCNC(=N)N)C(=O)N[C@@H](CC(C)C)C(=O)O)C(C)C)C(C)C [Peptide 9019.0077]	nM	1800

Sourced from patent US20140377340A1
